System: 186277-243-T-J2-PDC complex spheroid growth, % test/control
Test: Anticancer human tumor 186277-243-T-J2-PDC patient-derived colon adenocarcinoma cell line growth inhibition [Asc]
Conditions: second compound 0.3 µM; first compound 0.0316 µM; hits give low values
ASSAY METRIC: viability, T/C (%)
Numbers only, in %.

Items follow; give viability, T/C for each.
1. CCN1CCN(Cc2ccc(Nc3ncc(F)c(-c4cc(F)c5nc(C)n(C(C)C)c5c4)n3)nc2)CC1 + CCN1C(C(=O)NC23CCC(C(=O)O)(CC2)CC3)C(c2cccc(Cl)c2F)C2(C(=O)Nc3cc(Cl)ccc32)C12CCCCC2
2. COc1c(OCCCN2CCOCC2)ccc2c3n(c(=NC(=O)c4cnc(N)nc4)nc12)CCN3 + CCN1C(C(=O)NC23CCC(C(=O)O)(CC2)CC3)C(c2cccc(Cl)c2F)C2(C(=O)Nc3cc(Cl)ccc32)C12CCCCC2
3. C=CC(=O)N1CCN(c2nc(=O)n(-c3c(C)ccnc3C(C)C)c3nc(-c4c(O)cccc4F)c(F)cc23)C(C)C1 (centres undefined) + CCN1C(C(=O)NC23CCC(C(=O)O)(CC2)CC3)C(c2cccc(Cl)c2F)C2(C(=O)Nc3cc(Cl)ccc32)C12CCCCC2
4. CNC(C)C(=O)NC1CN(S(=O)(=O)c2cccc(S(=O)(=O)N3CCC4CCC(C(=O)NC(c5ccccc5)c5ccccc5)N4C(=O)C(NC(=O)C(C)NC)C3)c2)CCC2CCC(C(=O)NC(c3ccccc3)c3ccccc3)N2C1=O (centres undefined) + CCN1C(C(=O)NC23CCC(C(=O)O)(CC2)CC3)C(c2cccc(Cl)c2F)C2(C(=O)Nc3cc(Cl)ccc32)C12CCCCC2

1: 65.8; 2: 21.4; 3: 74.9; 4: 87

----------
System: 186277-243-T-J2-PDC complex spheroid growth, % test/control
Test: Anticancer human tumor 186277-243-T-J2-PDC cell line growth inhibition [Asc];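 note: spheroids exposed to agents for 7 days; 100% = DMSO vehicle control wells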
Conditions: second compound 0.316 µM; first compound 0.00316 µM; hits give low values
Consider the following compounds; for each one, report its viability, T/C.
Answers are plain numbers, in %.

Below: 3 compounds and their reported viability, T/C.
O=C(c1ccc(F)c(F)c1Nc1ccc(I)cc1F)N1CC(O)([C@@H]2CCCCN2)C1 + Cc1c(S(C)(=O)=O)c(-c2cc(F)cc(N3CCN(c4ccc(NS(=O)(=O)c5ccc(NC(CCN6CCC(C(=O)OCCCP(=O)(O)O)CC6)CSc6ccccc6)c(S(=O)(=O)C(F)(F)F)c5)cc4)CC3)c2)c(-c2ccc(Cl)cc2)n1C(C)C; 101
CCN1CCN(Cc2ccc(Nc3ncc(F)c(-c4cc(F)c5nc(C)n(C(C)C)c5c4)n3)nc2)CC1 + CNC(C)C(=O)NC1CN(S(=O)(=O)c2cccc(S(=O)(=O)N3CCC4CCC(C(=O)NC(c5ccccc5)c5ccccc5)N4C(=O)C(NC(=O)C(C)NC)C3)c2)CCC2CCC(C(=O)NC(c3ccccc3)c3ccccc3)N2C1=O; 107
NC1CCC(NC2CC2c2ccccc2)CC1 (configuration not stated) + Cc1c(S(C)(=O)=O)c(-c2cc(F)cc(N3CCN(c4ccc(NS(=O)(=O)c5ccc(NC(CCN6CCC(C(=O)OCCCP(=O)(O)O)CC6)CSc6ccccc6)c(S(=O)(=O)C(F)(F)F)c5)cc4)CC3)c2)c(-c2ccc(Cl)cc2)n1C(C)C; 111

Items follow; give viability, T/C for each.
1. COc1c(OCCCN2CCOCC2)ccc2c3n(c(=NC(=O)c4cnc(N)nc4)nc12)CCN3 + CNC(C)C(=O)NC1CN(S(=O)(=O)c2cccc(S(=O)(=O)N3CCC4CCC(C(=O)NC(c5ccccc5)c5ccccc5)N4C(=O)C(NC(=O)C(C)NC)C3)c2)CCC2CCC(C(=O)NC(c3ccccc3)c3ccccc3)N2C1=O
2. CNC(C)C(=O)NC1CN(S(=O)(=O)c2cccc(S(=O)(=O)N3CCC4CCC(C(=O)NC(c5ccccc5)c5ccccc5)N4C(=O)C(NC(=O)C(C)NC)C3)c2)CCC2CCC(C(=O)NC(c3ccccc3)c3ccccc3)N2C1=O (configuration not stated) + Cc1c(S(C)(=O)=O)c(-c2cc(F)cc(N3CCN(c4ccc(NS(=O)(=O)c5ccc(NC(CCN6CCC(C(=O)OCCCP(=O)(O)O)CC6)CSc6ccccc6)c(S(=O)(=O)C(F)(F)F)c5)cc4)CC3)c2)c(-c2ccc(Cl)cc2)n1C(C)C
3. Cn1ncnc1[C@H]1c2n[nH]c(=O)c3cc(F)cc(c23)N[C@@H]1c1ccc(F)cc1 + Cc1c(S(C)(=O)=O)c(-c2cc(F)cc(N3CCN(c4ccc(NS(=O)(=O)c5ccc(NC(CCN6CCC(C(=O)OCCCP(=O)(O)O)CC6)CSc6ccccc6)c(S(=O)(=O)C(F)(F)F)c5)cc4)CC3)c2)c(-c2ccc(Cl)cc2)n1C(C)C
4. O=C(c1ccc(F)c(F)c1Nc1ccc(I)cc1F)N1CC(O)([C@@H]2CCCCN2)C1 + CNC(C)C(=O)NC1CN(S(=O)(=O)c2cccc(S(=O)(=O)N3CCC4CCC(C(=O)NC(c5ccccc5)c5ccccc5)N4C(=O)C(NC(=O)C(C)NC)C3)c2)CCC2CCC(C(=O)NC(c3ccccc3)c3ccccc3)N2C1=O

108
102
114
112

----------
Tested on: 186277-243-T-J2-PDC complex spheroid growth, % test/control
Assay: Anticancer human tumor 186277-243-T-J2-PDC cell line growth inhibition [Asc];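 note: spheroids exposed to agents for 7 days; 100% = DMSO vehicle control wells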
Details: second compound 10 µM; first compound 0.1 µM; hits give low values
ASSAY METRIC: viability, T/C (%)
Give bare numbers, in %.

Below: 2 compounds and their reported viability, T/C.
CCN1CCN(Cc2ccc(Nc3ncc(F)c(-c4cc(F)c5nc(C)n(C(C)C)c5c4)n3)nc2)CC1 + Cc1c(S(C)(=O)=O)c(-c2cc(F)cc(N3CCN(c4ccc(NS(=O)(=O)c5ccc(NC(CCN6CCC(C(=O)OCCCP(=O)(O)O)CC6)CSc6ccccc6)c(S(=O)(=O)C(F)(F)F)c5)cc4)CC3)c2)c(-c2ccc(Cl)cc2)n1C(C)C; 110
NC1CCC(NC2CC2c2ccccc2)CC1 (stereo not drawn) + Cc1c(S(C)(=O)=O)c(-c2cc(F)cc(N3CCN(c4ccc(NS(=O)(=O)c5ccc(NC(CCN6CCC(C(=O)OCCCP(=O)(O)O)CC6)CSc6ccccc6)c(S(=O)(=O)C(F)(F)F)c5)cc4)CC3)c2)c(-c2ccc(Cl)cc2)n1C(C)C; 98

Now for a further compound.
Any idea what its viability, T/C is? The compound is CNC(C)C(=O)NC1CN(S(=O)(=O)c2cccc(S(=O)(=O)N3CCC4CCC(C(=O)NC(c5ccccc5)c5ccccc5)N4C(=O)C(NC(=O)C(C)NC)C3)c2)CCC2CCC(C(=O)NC(c3ccccc3)c3ccccc3)N2C1=O (stereo not drawn) + Cc1c(S(C)(=O)=O)c(-c2cc(F)cc(N3CCN(c4ccc(NS(=O)(=O)c5ccc(NC(CCN6CCC(C(=O)OCCCP(=O)(O)O)CC6)CSc6ccccc6)c(S(=O)(=O)C(F)(F)F)c5)cc4)CC3)c2)c(-c2ccc(Cl)cc2)n1C(C)C
109

----------
System: 186277-243-T-J2-PDC complex spheroid growth, % test/control
Assay: Anticancer human tumor 186277-243-T-J2-PDC cell line growth inhibition [Asc]; active = viability on the fitted dose curve at most 10% of control; inactive = the rest;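 note: spheroids exposed to agents for 7 days; 100% = DMSO vehicle control wells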
Conditions: second compound 1 µM; first compound 10 µM
Respond only with the outcome that fits, drawn from T for active, F for inactive

Known results for molecules:
O=C(c1cc(Cc2n[nH]c(=O)c3ccccc23)ccc1F)N1CCN(C(=O)C2CC2)CC1 + Cc1c(S(C)(=O)=O)c(-c2cc(F)cc(N3CCN(c4ccc(NS(=O)(=O)c5ccc(NC(CCN6CCC(C(=O)OCCCP(=O)(O)O)CC6)CSc6ccccc6)c(S(=O)(=O)C(F)(F)F)c5)cc4)CC3)c2)c(-c2ccc(Cl)cc2)n1C(C)C; F
C=CC(=O)N1CCN(c2nc(=O)n(-c3c(C)ccnc3C(C)C)c3nc(-c4c(O)cccc4F)c(F)cc23)C(C)C1 (stereo not given) + Cc1c(S(C)(=O)=O)c(-c2cc(F)cc(N3CCN(c4ccc(NS(=O)(=O)c5ccc(NC(CCN6CCC(C(=O)OCCCP(=O)(O)O)CC6)CSc6ccccc6)c(S(=O)(=O)C(F)(F)F)c5)cc4)CC3)c2)c(-c2ccc(Cl)cc2)n1C(C)C; F
C=CC(=O)N1CCN(c2nc(=O)n(-c3c(C)ccnc3C(C)C)c3nc(-c4c(O)cccc4F)c(F)cc23)C(C)C1 (stereo not given) + CNC(C)C(=O)NC1CN(S(=O)(=O)c2cccc(S(=O)(=O)N3CCC4CCC(C(=O)NC(c5ccccc5)c5ccccc5)N4C(=O)C(NC(=O)C(C)NC)C3)c2)CCC2CCC(C(=O)NC(c3ccccc3)c3ccccc3)N2C1=O; F

GET /call?item= C=C(F)C(=O)N1CCN(c2nc(OCC3CCCN3C)nc3c2CCN(c2cccc4cccc(Cl)c24)C3)CC1CC#N (stereo not given) + CNC(C)C(=O)NC1CN(S(=O)(=O)c2cccc(S(=O)(=O)N3CCC4CCC(C(=O)NC(c5ccccc5)c5ccccc5)N4C(=O)C(NC(=O)C(C)NC)C3)c2)CCC2CCC(C(=O)NC(c3ccccc3)c3ccccc3)N2C1=O returns the recorded outcome of this test.
T

GET /call?item= C=C(F)C(=O)N1CCN(c2nc(OCC3CCCN3C)nc3c2CCN(c2cccc4cccc(Cl)c24)C3)CC1CC#N (stereo not given) + Cc1c(S(C)(=O)=O)c(-c2cc(F)cc(N3CCN(c4ccc(NS(=O)(=O)c5ccc(NC(CCN6CCC(C(=O)OCCCP(=O)(O)O)CC6)CSc6ccccc6)c(S(=O)(=O)C(F)(F)F)c5)cc4)CC3)c2)c(-c2ccc(Cl)cc2)n1C(C)C returns the recorded outcome of this test.
T
